- Tested on: HL-60(TB) leukemia
- Assay Notes: NCI tumour cell line growth inhibition, 48 h
Measurement Label: TGI

Q: # get_value(readout='TGI', item= CC(=O)n1[nH]c(=O)n(-c2ccc(Cl)cc2)c1=O )
A: > 100 µM

Q: // lookup TGI for CN(C)C(=S)/N=c1\ss/c(=N\C(=S)N(C)C)n1-c1cccc(Cl)c1
A: > 100 µM

Q: Consider the molecule O=C1NC(O)c2cc3ccccc3cc2O1 (stereo unspecified) and give its measured TGI.
A: > 100 µM

Q: Request the reported TGI associated with ClC1=NN=C(c2c[nH]c3ccccc23)CC1NCc1ccccc1 (stereo unspecified)
A: > 100 µM

Q: For the molecule c1cnc2c(c1)-n1cccc1C1(CCCCC1)NN2 , what TGI is on record?
A: > 100 µM

Q: # input molecule: C=C(Br)CN=CN(C)C ; wanted: its TGI
A: > 100 µM

Q: Requested read-out: TGI. Entry: O=C1NC(O)n2c(=O)[nH]c(=O)n21 (stereo unspecified)
A: > 100 µM

Q: // query TGI value for entry O=C(Nc1ccc(Cl)cc1C(F)(F)F)C(=O)Nn1c(=S)[nH]c2ccccc2c1=O
A: > 100 µM

Q: // returns reported TGI for input c1ccc2c(c1)[nH]c1c2nc2ccccn21
A: > 100 µM

Q: Could you share which TGI value was measured for O=C(Nc1ccccc1)N1CCN(C(=O)Nc2ccccc2)C1=S ?
A: > 100 µM

Q: Need TGI, item COC1=CC(c2ccc[nH]2)=N/C1=C\c1[nH]c(C)c(C(=O)CCCCCCCCC(=O)O[C@H]2CC[C@H]3C4CCc5cc(O)ccc5C4CC[C@]23C)c1C (stereo partly specified)
A: > 50 µM

Q: TGI for O=C1C(=O)c2c(nc3ccc(C(F)(F)F)cn23)-c2ccccc21 ?
A: 0.6 µM

Q: Request the reported TGI associated with Cc1cn(CCCCCCOC(=O)NC(CCCNC(N)=O)C(=O)O)c(=O)[nH]c1=O (stereo unspecified)
A: > 100 µM

Q: Fill in: TGI of COc1cc(/C=N/NC(=O)c2cnn3c2NC(c2ccccc2)C3)ccc1OC1CCCC1 (stereo unspecified) is ___
A: 3.93 µM

Q: State the recorded TGI for this entry: NC(N)=N/N=C\c1ccc(OCc2ccccc2)cc1
A: 4.87 µM

Q: Return reported TGI; argument: O=c1c2cc(Br)cc(Br)c2[nH]c(=S)n1-c1ccc(N=Nc2ccc(O)c3cccnc23)cc1
A: > 100 µM
